ASSAY NOTES: Drug excretion in mouse urine at 10 mg/kg, po or 2 mg/kg, iv
Assay type: ADME, organism-based
TEST SETTINGS: read-out: Drug excretion
We label by threshold. Values of dose excreted strictly beneath 7% are Criterion met. Values of 7% and up are Criterion not met.

INSERT INTO assay_data (mol_smiles, category_label) VALUES
  ('Cc1cc(-c2ccc(=O)n(CC(C)(C)O)c2)ccc1S[C@H]1O[C@H](CO)[C@@H](O)[C@H](O)[C@@H]1O', 'Criterion met'),
  ('COc1ccc(-c2ccc(S[C@H]3O[C@H](CO)[C@@H](O)[C@H](O)[C@@H]3O)c(C)c2)cn1', 'Criterion met'),
  ('Cc1cc(-c2ccc(=O)n(-c3ccccc3)c2)ccc1S[C@H]1O[C@H](CO)[C@@H](O)[C@H](O)[C@@H]1O', 'Criterion not met'),
  ('CSc1ccc(-c2ccc(S[C@H]3O[C@H](CO)[C@@H](O)[C@H](O)[C@@H]3O)c(C)c2)cn1', 'Criterion not met');

Prompt line: In the record for "Cc1cc(-c2ccc(=O)n(CC(C)C)c2)ccc1S[C@H]1O[C@H](CO)[C@@H](O)[C@H](O)[C@@H]1O" , is dose excreted less than 7%?
Response line: Criterion not met
